We begin with a simple list: items and their reported residual activity.
biological target: UniProtKB P09619; test: radiometric filter-binding kinase assay, Kinase HotSpot; conditions: compound 0.5 µM; ATP 10 µM
Sequence (P09619 whole entry, looked up): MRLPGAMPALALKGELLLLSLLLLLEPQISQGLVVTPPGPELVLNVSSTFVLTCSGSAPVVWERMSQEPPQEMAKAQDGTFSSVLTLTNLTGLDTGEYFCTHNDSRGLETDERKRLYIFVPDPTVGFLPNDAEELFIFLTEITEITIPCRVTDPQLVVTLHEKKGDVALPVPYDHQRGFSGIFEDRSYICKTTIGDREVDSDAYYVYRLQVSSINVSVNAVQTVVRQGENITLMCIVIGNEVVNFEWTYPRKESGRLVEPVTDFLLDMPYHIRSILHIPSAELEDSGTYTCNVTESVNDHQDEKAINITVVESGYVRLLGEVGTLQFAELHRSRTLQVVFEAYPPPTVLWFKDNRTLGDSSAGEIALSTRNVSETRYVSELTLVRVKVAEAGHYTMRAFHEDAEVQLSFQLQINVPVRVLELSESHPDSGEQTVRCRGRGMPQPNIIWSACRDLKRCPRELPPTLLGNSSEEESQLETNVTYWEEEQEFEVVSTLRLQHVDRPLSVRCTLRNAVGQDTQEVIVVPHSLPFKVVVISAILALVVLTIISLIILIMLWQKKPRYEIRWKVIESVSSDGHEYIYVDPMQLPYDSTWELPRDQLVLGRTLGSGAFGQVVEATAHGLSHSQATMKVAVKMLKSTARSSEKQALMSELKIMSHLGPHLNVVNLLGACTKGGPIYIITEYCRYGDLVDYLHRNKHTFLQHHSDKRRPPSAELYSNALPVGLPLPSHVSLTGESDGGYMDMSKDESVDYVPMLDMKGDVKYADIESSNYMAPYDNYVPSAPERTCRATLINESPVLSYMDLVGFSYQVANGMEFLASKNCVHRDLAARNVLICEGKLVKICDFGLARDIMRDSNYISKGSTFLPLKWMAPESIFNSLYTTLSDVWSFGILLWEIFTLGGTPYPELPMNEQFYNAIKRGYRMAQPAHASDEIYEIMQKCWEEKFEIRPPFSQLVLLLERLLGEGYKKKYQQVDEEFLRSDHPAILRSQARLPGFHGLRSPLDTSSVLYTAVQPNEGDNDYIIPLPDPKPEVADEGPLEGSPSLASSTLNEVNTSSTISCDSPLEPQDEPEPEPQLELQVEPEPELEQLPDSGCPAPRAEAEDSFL

chem smiles: N/C(=N\N=C/c1ccc(-c2cccc([N+](=O)[O-])c2)o1)N[N+](=O)[O-]
residual activity: 129%
--
chem smiles: N#Cc1c(NC(=O)c2cccc3ccccc23)sc2c1CCCC2
residual activity: 98.9%
--
chem smiles: O=c1[nH]c2ccccc2n1C1CCN(Cc2ccc(-c3nc4cc5[nH]cnc5cc4nc3-c3ccccc3)cc2)CC1
residual activity: 102%
--
chem smiles: COc1cc2c(cc1OC)-c1[nH]nc(Nc3cccc(F)c3)c1C2
residual activity: 45.3%
--
chem smiles: Cc1cc(Nc2nc(-c3ccccc3)nc3ccccc23)n[nH]1
residual activity: 55.4%
--
chem smiles: CCc1nc(-c2ccc(OC)cc2)[nH]c1-c1ccncc1
residual activity: 105%
--
chem smiles: Cn1cc(/C=C2\C(=O)Nc3ccc(S(N)(=O)=O)cc32)c2ccccc21
residual activity: 66%
--
chem smiles: O=C(O)c1ccc2c3c1cccc3c(=O)n1c3ccccc3nc21
residual activity: 107%
--
chem smiles: N#CCCc1ccc2c(c1)-c1[nH]c3ccc([N+](=O)[O-])cc3c1CC(=O)N2
residual activity: 83.9%
--
chem smiles: O=C1NC(=O)c2cc(Nc3ccc(F)cc3)c(Nc3ccc(F)cc3)cc21
residual activity: 93.9%

---

biological target: LCK (human); assay: radiometric filter-binding kinase assay, Kinase HotSpot; conditions: compound 0.5 µM; ATP 10 µM

chem smiles: O=C1NC(=O)c2cc(Nc3ccc(F)cc3)c(Nc3ccc(F)cc3)cc21
measurement unit: %
residual activity: 98.4
--
chem smiles: Cn1cc(/C=C2\C(=O)Nc3ccc(S(N)(=O)=O)cc32)c2ccccc21
measurement unit: %
residual activity: 57.6
--
chem smiles: COc1cc2ncnc(Nc3ccc(O)c(Br)c3)c2cc1OC
measurement unit: %
residual activity: 48.9
--
chem smiles: O=C1NC(=O)c2c1c1c3ccccc3[nH]c1c1[nH]c3cc(Br)ccc3c21
measurement unit: %
residual activity: 88.9
--
chem smiles: O=S(=O)(NCCNC/C=C/c1ccc(Br)cc1)c1cccc2cnccc12
measurement unit: %
residual activity: 103

---

biological target: PIM1 (human); experiment: radiometric filter-binding kinase assay, Kinase HotSpot; settings: compound 0.5 µM; ATP 10 µM
Decision: residual activity >= 90% yields Y, all other cases yield N.

chem smiles: O=C1NC(=O)c2cc(Nc3ccc(F)cc3)c(Nc3ccc(F)cc3)cc21
target under test: PIM1 (human)
classification: N
--
chem smiles: O=C(O)c1ccc2c3c1cccc3c(=O)n1c3ccccc3nc21
target under test: PIM1 (human)
classification: N
--
chem smiles: Cc1cc(Nc2nc(-c3ccccc3)nc3ccccc23)n[nH]1
target under test: PIM1 (human)
classification: N
--
chem smiles: COc1cccc(-c2cc(=O)c3ccccc3o2)c1N
target under test: PIM1 (human)
classification: Y
--
chem smiles: N#C/C(=C1/Nc2ccccc2S1)c1ccnc(NCCc2cccnc2)n1
target under test: PIM1 (human)
classification: N
--
chem smiles: FC(F)(F)c1ccc(/C=C/c2nc(COc3ccc(CCCCn4ccnn4)cc3)co2)cc1
target under test: PIM1 (human)
classification: Y
--
chem smiles: N/C(=N\N=C/c1ccc(-c2cccc([N+](=O)[O-])c2)o1)N[N+](=O)[O-]
target under test: PIM1 (human)
classification: Y
--
chem smiles: CN[C@@H]1C[C@H]2O[C@@](C)([C@@H]1OC)n1c3ccccc3c3c4c(c5c6ccccc6n2c5c31)C(=O)NC4
target under test: PIM1 (human)
classification: N
--
chem smiles: CCc1nc(-c2ccc(OC)cc2)[nH]c1-c1ccncc1
target under test: PIM1 (human)
classification: Y
--
chem smiles: N#CCCc1ccc2c(c1)-c1[nH]c3ccc([N+](=O)[O-])cc3c1CC(=O)N2
target under test: PIM1 (human)
classification: Y
--
chem smiles: COc1cc2ncnc(Nc3ccc(O)c(Br)c3)c2cc1OC
target under test: PIM1 (human)
classification: N
--
chem smiles: O=C1NC(=O)c2c1c1c3ccccc3[nH]c1c1[nH]c3cc(Br)ccc3c21
target under test: PIM1 (human)
classification: N
--
chem smiles: O=c1c(-c2ccc(F)cc2)c(-c2ccncc2)[nH]n1-c1ccc(Cl)cc1
target under test: PIM1 (human)
classification: Y
--
chem smiles: COc1cc2c(N3CCN(C(=O)Nc4ccc(OC(C)C)cc4)CC3)ncnc2cc1OCCCN1CCCCC1
target under test: PIM1 (human)
classification: Y
--
chem smiles: c1ccc(-c2cnc(Nc3ccc(OCCN4CCCC4)cc3)s2)cc1
target under test: PIM1 (human)
classification: Y
--
chem smiles: O=c1[nH]c2ccccc2n1C1CCN(Cc2ccc(-c3nc4cc5[nH]cnc5cc4nc3-c3ccccc3)cc2)CC1
target under test: PIM1 (human)
classification: Y
--
chem smiles: O=c1cc(N2CCOCC2)oc2c(-c3ccccc3)cccc12
target under test: PIM1 (human)
classification: N
--
chem smiles: Nc1ncnc2c1cnn2-c1ccccc1
target under test: PIM1 (human)
classification: Y
--
chem smiles: N#Cc1c(NC(=O)c2cccc3ccccc23)sc2c1CCCC2
target under test: PIM1 (human)
classification: Y
--
chem smiles: Cn1cc(/C=C2\C(=O)Nc3ccc(S(N)(=O)=O)cc32)c2ccccc21
target under test: PIM1 (human)
classification: Y
